Test description: Pharmacokinetics after intraperitoneal administration in mice
Assay type: in vivo
Conditions: mouse, plasma, ip, 50 mg/kg, read-out: half-life, injected into the peritoneal cavity (converted)
Endpoint label: half-life (h)

CN(C)C(=O)c1cc(NC(=O)c2cc3c(-c4cnc5[nH]ccc5c4)cccc3s2)ccc1O    14

====

Test description: Pharmacokinetics after oral administration in mice
Type: in vivo
Conditions: mouse, 50 mg/kg, plasma, read-out: MRT0-∞
Endpoint label: MRT inf (h)

CN(C)C(=O)c1cc(NC(=O)c2cc3c(-c4cnc5[nH]ccc5c4)cccc3s2)ccc1O    1.91

====

Tested target: CSNK1A1 (Homo sapiens)
Sequence (P48729 whole entry): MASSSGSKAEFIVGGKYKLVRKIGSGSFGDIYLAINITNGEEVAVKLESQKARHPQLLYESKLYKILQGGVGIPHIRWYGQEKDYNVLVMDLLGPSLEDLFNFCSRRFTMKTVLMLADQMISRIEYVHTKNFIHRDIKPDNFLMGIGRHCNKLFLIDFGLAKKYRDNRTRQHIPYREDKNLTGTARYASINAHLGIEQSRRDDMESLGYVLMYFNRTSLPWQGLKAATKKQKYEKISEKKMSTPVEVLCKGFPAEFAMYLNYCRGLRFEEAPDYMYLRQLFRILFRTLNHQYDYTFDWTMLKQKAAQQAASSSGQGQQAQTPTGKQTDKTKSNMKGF
pKd: −log10 of the molar value.
Endpoint label: pKd

CN(C)Cc1ccc(NC(=O)c2ccn3ncc(-c4cnc5[nH]ccc5c4)c3c2)cc1    7.15
